tested on: Pseudomonas aeruginosa (ATCC 27853); experiment: Minimum bactericidal concentration (MBC) assay; assay type: cell-based; settings: Tables 11-21, no unit printed
No end group written: not given here.
Okay, here is how we bin by MBC Pseudomonas aeruginosa: lower segment (below 30 µg/mL), middle segment (30 µg/mL to below 200 µg/mL), upper segment (200 µg/mL or more)

| Substance | Group label |
| --- | --- |
| KTMMQSGGTWGTFMAIGMGIR [KU-5878-F67W] | middle segment |
| KTMMQSGGAFGTFMAIGMGIR [KU-5878-T66A] | upper segment |
| KTMM-SGGTFGTFMAIGMGIR [Peptide 5878-4620] | middle segment |

Class? Entry: KTMMQSGGTFGTF-AIGMGIR [Peptide 5878-d71M]
upper segment

Which class does KTMMQSGGTFGTFMAWGMGIR [KU-5878-I73W] fall in?
upper segment

---

test system: Methicillin-resistant Staphylococcus aureus (MRSA, ATCC 33591); test: Minimum bactericidal concentration (MBC) assay; assay type: cell-based; conditions: Tables 11-21, no unit printed
No end group written: not given here.
Label TRUE when MBC MRSA < 50 µg/mL; otherwise FALSE.

| Substance | Study system | Group label |
| --- | --- | --- |
| K-MMQSGGTFGTFMAIGMGIR [Peptide 5878-d59T] | Methicillin-resistant Staphylococcus aureus (MRSA, ATCC 33591) | FALSE |

Next, consider the following substance.
Please let me know if KTMMQSGGTFGTFMGIGMGIR [KU-5878-A72G] shows MBC MRSA below 50 µg/mL.
FALSE

---

tested on: Pseudomonas aeruginosa (ATCC 27853); assay: Minimum bactericidal concentration (MBC) assay; assay type: cell-based; settings: Tables 11-21, no unit printed
No end group written: not given here.
Kindly state log10 MBC Pseudomonas aeruginosa for each of the entries shown.
All values: log10 MBC Pseudomonas aeruginosa [µg/mL].

Worked cases, log10 MBC Pseudomonas aeruginosa given:
| Substance | log10 MBC Pseudomonas aeruginosa |
| --- | --- |
| K-MMQSGGTFGTFMAIGMGIR [Peptide 5878-d59T] | 2.18 |
| KKMMKKGGKFGTFMAIGM-IR [Peptide 5878-K4-d76G] | 0.60 |

Required: log10 MBC Pseudomonas aeruginosa, one value per substance below.
1. KKMMKK-GKFGTF-AIGMGIR [Peptide K4-d64G-d71M]
2. KTMMQKGGTFGTFMAIGMGIR [KU-5878-S63K]
3. KKMMKSGGTFGTFMAIGMGIR [KU-5878-K2(T59K, Q62K)]
4. KKMM-KGGKFGTF-AIGMGIR [Peptide K4-d62K-d71M]
5. KTMMQ-GGTFGTFMAIGMGIR [Peptide 5878-d63S]
6. KK-MKKGGKFGTFMAIGMGIR [5878-K4-d60M(=d61M)]

1. 1.18
2. 1.78
3. 0.90
4. 1.08
5. 2.30
6. 0.30

# return log10 MBC Pseudomonas aeruginosa for each item in the list
1. KT-MQS-GTFGTFMAIGMGIR [5878-d60M, d64G]
2. KTMMKSGGTFGTFMAIGMGIR [KU-5878-Q62K]
3. KTMMQSGGTFGTFMAIGM-IR [Peptide 5878-d76G]
4. KTMMQSGGTFGAFMAIGMGIR [KU-5878-T69A]

[2.00, 1.95, 1.90, 2.48]

---

Task for the reader: assign each of the following substances its reported MBC MRSA.
test system: Methicillin-resistant Staphylococcus aureus (MRSA, ATCC 33591); assay: Minimum bactericidal concentration (MBC) assay; assay type: cell-based; conditions: Tables 11-21, no unit printed
Answers are plain numbers, in µg/mL.

| Substance | Numeric readout |
| --- | --- |
| KAMMQSGGTFGTFMAIGMGIR [KU-5878-T59A] | 140 |

# map each substance to its MBC MRSA
1. KK-MKKGGKFGTFMAIGMGIR [5878-K4-d60M(=d61M)]
2. KKMM-KGGKFGTFMAIGMGIR [5878-K4-d62K(=d63K)]
3. KK-MKKGGKFGTF--IGMGIR [d 60M 71M 72A]
4. KTMMQRGGTFGTFMAIGMGIR [KU-5878-S63R]
5. -KMMKKGGKFGTF-AIG-GIR [d 58K 71M 75M]

1: 2; 2: 6; 3: 10; 4: 25; 5: 4

---

test system: Pseudomonas aeruginosa (ATCC 27853); test: Minimum bactericidal concentration (MBC) assay; assay type: cell-based; details: Tables 11-21, no unit printed
No end group written: not given here.
Quantity kind: MBC Pseudomonas aeruginosa

| Substance | Quantity kind | Result |
| --- | --- | --- |
| ATMMQSGGTFGTFMAIGMGIR [KU-5878-K58A] | MBC Pseudomonas aeruginosa | > 300 µg/mL |

For each of the substances below, state MBC Pseudomonas aeruginosa.
1. KTMMQSGGTFG-FMAIGMGIR [Peptide 5878-d69T]
2. KTMMQSGGTFGTFMAKGMGIR [KU-5878-I73K]
3. KTMMQSGGTFGTFMAIGMGAR [KU-5878-I77A]
4. KTMMQSGGTFGTF-AIG-GIR [5878-d71M, d75M]
5. KTMMQSGGRFGTFMAIGMGIR [KU-5878-T66R]
6. KKMMKKGGKFGTF--IGMGIR [Peptide K4-d71M-d72A]
7. KKMM-KGGKFGTFMAIGMGIR [5878-K4-d62K(=d63K)]

1: 120 µg/mL; 2: > 300 µg/mL; 3: > 300 µg/mL; 4: 300 µg/mL; 5: 80 µg/mL; 6: 20 µg/mL; 7: 2 µg/mL

---

tested on: Methicillin-resistant Staphylococcus aureus (MRSA, ATCC 33591); test: Minimum bactericidal concentration (MBC) assay; assay type: cell-based; conditions: Tables 11-21, no unit printed
No end group written: not given here.
I'd be grateful if you could share measured MBC MRSA for these entries.
One number for each entry, in µg/mL.

Example entries begin here.
| Substance | MBC MRSA [µg/mL] |
| --- | --- |
| KKMMKKGGKFGT-MAIGMGIR [5878 K4-d70F] | 110 |
| KKMMKSGGTFGTFMAIGMGIR [KU-5878-K2(T59K, Q62K)] | 8 |
| KKMMKKGGKFGTF--IGMGIR [Peptide K4-d71M-d72A] | 20 |

// batch mode: one MBC MRSA value per listed entry
1. KTMMQS-GTFGTF-AIGM-IR [5878-d64G, d71M, d76G]
2. KKMMKKGGTFGTFMAIGMGIR [KU-5878-K3 (T59K, Q62K, S63K)]
3. KTMMQSGGTFGTFMAIGMGIRKK [Peptide 5878-KK]
4. -KMMKKGGKFGTFMAIG-GIR [Peptide K4-d58K-d75M]

200
5
16
180

Parameter requested: MBC MRSA. Apply to each item below.
1. KKMMKK-GKFGTF-AIGMGIR [Peptide K4-d64G-d71M]
2. -K-MKKGGKFGTFMAIG-GIR [d 58K 60M 75M]
3. KTMMQSGGTFGKFMAIGMGIR [KU-5878-T69K]

1: 18; 2: 8; 3: 150

State the recorded MBC MRSA for every item in the following list.
1. KT-MQSGGTFGTFMAIGMGIR [Peptide 5878-d60M]
2. KTMMQSGGTFGAFMAIGMGIR [KU-5878-T69A]

100
300

Please look at the items below and tell me MBC MRSA for each one, in order.
1. KK---KGGKFGTF-AIG-GIR [d 60M 61M 62K 71M 75M]
2. KKMMKKGGKFG-F-AIGMGIR [Peptide K4-d69T-d71M]

80
12

---

What MBC Pseudomonas aeruginosa was measured for each of the following?
system: Pseudomonas aeruginosa (ATCC 27853); assay: Minimum bactericidal concentration (MBC) assay; assay type: cell-based; conditions: Pseudomonas aeruginosa
One number for each entry, in µg/mL.

| Substance | Unit of measurement | MBC Pseudomonas aeruginosa |
| --- | --- | --- |
| d 60M 62K 71M 75M (KGGKFGTF) | µg/mL | 2 |

Here are 5 substances. What values of MBC Pseudomonas aeruginosa were reported for them?
1. d 60M 69T 71M 75M (MKKGGKFG)
2. d 58K 60M 71M 72A (MKKGGKFGTF)
3. d 58K 64G 72A 75M (GKFGTFM)
4. d 60M 71M 72A 75M (MKKGGKFGTF)
5. d 60M 61M 71M 75M (KKGGKFGTF)

[2, 20, 6, 2, 2]

---

test system: Methicillin-resistant Staphylococcus aureus (MRSA, ATCC 33591); assay: Minimum bactericidal concentration (MBC) assay; assay type: cell-based; details: Tables 11-21, no unit printed
No end group written: not given here.
Quantity kind: MBC MRSA (µg/mL)
Answers are plain numbers, in µg/mL.

| Substance | Study system | MBC MRSA, µg/mL |
| --- | --- | --- |
| KK-MKKGGKFGTF-AIG-GIR [d 60M 71M 75M] | Methicillin-resistant Staphylococcus aureus (MRSA, ATCC 33591) | 2 |
| -KMMKK-GKFG-F--IGMGIR [d 58K 64G 69T 71M 72A] | Methicillin-resistant Staphylococcus aureus (MRSA, ATCC 33591) | 3 |
| KTMMQSGGTFGTFMAIGMGIRRRR [Peptide 5878-3R] | Methicillin-resistant Staphylococcus aureus (MRSA, ATCC 33591) | 10 |
| KKMMKK-GKFGTF-AIG-GIR [d 64G 71M 75M] | Methicillin-resistant Staphylococcus aureus (MRSA, ATCC 33591) | 3 |
| KT-MQS-GTFGTFMAIGMGIR [5878-d60M, d64G] | Methicillin-resistant Staphylococcus aureus (MRSA, ATCC 33591) | 110 |

Hi there! I need MBC MRSA for each item below, if you can.
1. KTMMQKGGTFGTFMAIGMGIR [KU-5878-S63K]
2. KRMMQSGGTFGTFMAIGMGIR [KU-5878-T59R]
3. RTMMQSGGTFGTFMAIGMGIR [KU-5878-K58R]
4. KT-MQS-GTFGTF--IG-GIR [5878-d60M, d64G, d71M, d72A, d75M]
5. KTMMQSGGTFGTFMAIGMGGR [KU-5878-I77G]
6. KTMMQSGG-FGTFMAIGMGIR [Peptide 5878-d66T]

50
30
120
200
90
90
